Target: T1, interleukin 18 binding protein (IL-18BP) (UniProt O95998 31-194)
T1 sequence (looked up): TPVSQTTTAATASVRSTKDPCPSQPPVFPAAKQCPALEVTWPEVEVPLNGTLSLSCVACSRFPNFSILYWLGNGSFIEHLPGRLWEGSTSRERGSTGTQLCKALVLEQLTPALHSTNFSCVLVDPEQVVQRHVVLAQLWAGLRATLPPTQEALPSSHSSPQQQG
Experiment: cell-based or functional assay
valueType: Ratio (-BP/+BP), DF-10000

IL-18 variant K53G, S55I, R104K, P107Y (ligand) YFGKLESKLSVIRNLNDQVLFIDQGNRPLFEDMTDSDMRDNAPRTIFIISMYGDIQPRGMAVTISVKSEKISTLSSENKIISFKEMNPPDNIKDTKSDIIFFQKSVYGHDNKMQFESSSYEGYFLASEKERDLFKLILKKEDELGDRSIMFTVQNED	0.99
IL-18 variant T34N, S36N, D40E, N41G, K53S, S55Q, R104N, H109Y (ligand) YFGKLESKLSVIRNLNDQVLFIDQGNRPLFEDMNDNDMREGAPRTIFIISMYSDQQPRGMAVTISVKSEKISTLSSENKIISFKEMNPPDNIKDTKSDIIFFQNSVPGYDNKMQFESSSYEGYFLASEKERDLFKLILKKEDELGDRSIMFTVQNED	0.95
IL-18 variant K53T, S55G, P107A, H109Q (ligand) YFGKLESKLSVIRNLNDQVLFIDQGNRPLFEDMTDSDMRDNAPRTIFIISMYTDGQPRGMAVTISVKSEKISTLSSENKIISFKEMNPPDNIKDTKSDIIFFQRSVAGQDNKMQFESSSYEGYFLASEKERDLFKLILKKEDELGDRSIMFTVQNED	1.1
